# Assay procedure: Pharmacokinetic Parameter, half life period measured in Female Wistar Rats at 100 mg/kg by po administration
# Format: ADME, organism-based
# Design: dose 100 mg/kg, route oral
# Condition notes: rat, in vivo
Endpoint name: half-life (h)

Molecule | Endpoint name | Number
Cc1c(C)c2c(c(C)c1O)CCC(C)(COc1ccc(CC3SC(=O)NC3=O)cc1)O2 (stereo not drawn) | half-life | 4.01
Cc1c(C)c2c(c(C)c1OCc1ccccc1)C(CN1CCC[C@H]1COc1ccc(/C=C3\SC(=O)NC3=O)cc1)C(C)(C)O2.O=C(O)/C=C\C(=O)O (stereo partly drawn) | half-life | 10.1
Cc1c(C)c2c(c(C)c1OCc1ccccc1)C(CN1CCC[C@H]1COc1ccc(/C=C3\SC(=O)NC3=O)cc1)C(C)(C)O2 (stereo partly drawn) | half-life | 13.1

----------
Known Transactivation of a selection of compounds
# Assayed target: Peroxisome proliferator-activated receptor alpha (Homo sapiens)
# Assay procedure: Compound was tested for fold transactivation of human Peroxisome proliferator activated receptor alpha at 50 uM

Compound | Transactivation, fold
Cc1c(C)c2c(c(C)c1O)CCC(C)(COc1ccc(CC3SC(=O)NC3=O)cc1)O2 (stereo not given) [TROGLITAZONE] | 1.12
Cc1c(C)c2c(c(C)c1O)C(CN1CCC[C@H]1COc1ccc(CC3SC(=O)NC3=O)cc1)C(C)(C)O2 (stereo not given in full) | 0.46
Cc1c(C)c2c(c(C)c1OCc1ccccc1)C(CN1CCC[C@H]1COc1ccc(/C=C3\SC(=O)NC3=O)cc1)C(C)(C)O2 (stereo not given in full) | 0.43
Cc1c(C)c2c(c(C)c1O)C(CN1CCC[C@H]1COc1ccc(/C=C3\SC(=O)NC3=O)cc1)C(C)(C)O2 (stereo not given in full) | 0.28
Cc1c(C)c2c(c(C)c1OCc1ccccc1)C(CN1CCC[C@H]1COc1ccc(CC3SC(=O)NC3=O)cc1)C(C)(C)O2 (stereo not given in full) | 0.33

----------
Known PG of a selection of compounds
# Tested on: Mus musculus
# Assay procedure: Percent reduction of plasma glucose (PG) after 6 days of treatment. It is the mean of standard deviation observed in plasma glucose (PG) in db/db mice at dose of 30 mg/kg/day
# Type: functional
# Condition notes: route oral

Compound | PG
Cc1c(C)c2c(c(C)c1OCc1ccccc1)C(CN1CCC[C@H]1COc1ccc(/C=C3\SC(=O)NC3=O)cc1)C(C)(C)O2.Cl (stereo partly specified) | 25%
Cc1c(C)c2c(c(C)c1OCc1ccccc1)C(CN1CCC[C@H]1COc1ccc(/C=C3\SC(=O)NC3=O)cc1)C(C)(C)O2.O=C(O)/C=C\C(=O)O (stereo partly specified) | 45%
Cc1c(C)c2c(c(C)c1OCc1ccccc1)C(CN1CCC[C@H]1COc1ccc(CC3SC(=O)NC3=O)cc1)C(C)(C)O2 (stereo partly specified) | 37%
Cc1c(C)c2c(c(C)c1O)C(CN1CCC[C@H]1COc1ccc(CC3SC(=O)NC3=O)cc1)C(C)(C)O2 (stereo partly specified) | 28%
Cc1c(C)c2c(c(C)c1OCc1ccccc1)C(CN1CCC[C@H]1COc1ccc(CC3SC(=O)NC3=O)cc1)C(C)(C)O2.O=C(O)/C=C\C(=O)O (stereo partly specified) | 24%
Cc1c(C)c2c(c(C)c1OCc1ccccc1)C(CN1CCC[C@H]1COc1ccc(/C=C3\SC(=O)NC3=O)cc1)C(C)(C)O2 (stereo partly specified) | 40%

These entries and their values trace back to ChEMBL document CHEMBL1132225.
